Subject Of Test: protein F of hRSV strain B-1 (on RSV B-1-infected Hep2 cells and on virus) (human respiratory syncytial virus, …, UniProt P13843 26-574)
Experimental Details: cell ELISA on RSV B-1-infected Hep2 cells, periplasmic extract 1:50
Classify on Binding Hep2-B-1 (% control) 1:50 PE using lower level = under 60 % control, middle level = from 60 % control up to 90 % control, upper level = 90 % control and over

Nanobody 13D1 (VHH, also called PMP13D1; PRSV13D1) VHH: EVQLVESGGGLVQPGGSLRLSCATSGFTEDYYVIGWFRQAPGKEREGVSCMSSSGDSTTYADSVKGRFTISRDNAKNMVYLQMTSLKPEDTAVYYCAADFALGCYSGSYYPRYDYWGQGTQVTVSS :: upper level
Nanobody 19E2 (VHH, also called PMP19E2; PRSV19E2) VHH: EVQLVESGGGLVQPGGSLRLSCAASGLTLDYYALGWFRQAPGKEREGVSCISSSDHTTTYTDSVKGRFTISWDNAKNTLYLQMNSLKPEDTAVYYCAADPALGCYSGSYYPRYDFWGQGTQVTVSS :: middle level

Next, consider the following binder.
Req: Classify this binder: Nanobody 20C1 (VHH, also called PMP20C1; PRSV20C1) VHH: EVQLVESGGGLVQAGGSLRLSCAASGRTFSSFAMGWFRQAPGKEREFVAAISWSGGSTYYADSVKGRFTISGDNAKNTMYLQMNSLKPEDTAVYYCAADSEILNSGAYYYPWAYVYWGQGTQVTVSS
Resp: lower level

Source of measurements: patent US20120301469A1
